# target_or_test_system: Cyclin-dependent kinase 2 (Homo sapiens) (UniProt P24941)
# assay_text: Percentage inhibition against cyclin dependent kinase 2 (CDK 2) at a concentration of 50 uM
readout_kind: inhibition (%)
Give the value in % but do not write % after it.

For record `Cc1ccc2[nH]c3c(C)nccc3c2c1` the listed inhibition is 15

For reference, reported inhibition for `Cc1ccc(-c2[nH]ccc3c4ccccc4nc2-3)c(C)c1` stands at 5

Note to self: inhibition recorded for `CCOC(COc1ccc2c(c1)[nH]c1c(C)nccc12)OCC` was 1

Lab note: measured inhibition of `COc1ccc2[nH]c3c(C)nccc3c2c1` was 2

Data point: `Clc1ccccc1-c1[nH]ccc2c3ccccc3nc1-2` ; inhibition = 69

In plain terms, `CC(=O)OCCOc1ccc2c(c1)[nH]c1c(C)nccc12` has a documented inhibition of 23

###

Exercise: state measured pIC50 for each of the compounds provided.
# target_or_test_system: Cyclin-dependent kinase 1/cyclin B (Homo sapiens, UniProt P06493)
# assay_text: Inhibition of Cell division cycle 2 (CDK1)-cyclin B
Give only the number. pIC50 is defined as minus log10 of concentration in molar units.

For `Cc1[nH]cnc1-c1nccc2c1[nH]c1ccccc12` on Cyclin-dependent kinase 1/cyclin B (Homo sapiens, UniProt P06493), measured pIC50 was 4.60

`O=[N+]([O-])c1ccc(Cl)c(-c2[nH]ccc3c4ccccc4nc2-3)c1` on Cyclin-dependent kinase 1/cyclin B (Homo sapiens, UniProt P06493) gives pIC50 = 4.35

Field pIC50 (system: Cyclin-dependent kinase 1/cyclin B (Homo sapiens, UniProt P06493)) for entry `Cc1nccc2c1[nH]c1cc(F)ccc12` = 4.38
